- Tested on: Aorta
- PROCEDURE DETAILS: Potentiation of SNP-induced vasorelaxant activity in Sprague-Dawley rat endothelium-intact aortic rings assessed as reduction in L-phenylephrine hydrochloride-induced contraction at 200 uM relative to SNP
- Format: functional
READOUT NAME: Rmax (%)
# value in %; strip the unit string

Qu. Find the measured Rmax of `CCOP(=O)(OCC)C(C)(C)/[N+]([O-])=C/c1cc(O)c(O)c(O)c1` with Aorta as test system.
Ans. 104

Qu. Supply Rmax measured with Aorta for `CCOP(=O)(OCC)C(C)(C)/[N+]([O-])=C/c1ccc(O)c(O)c1` .
Ans. 103

Qu. // fetch Rmax for `CCOP(=O)(OCC)C(C)(C)/[N+]([O-])=C/c1cc(O)cc(O)c1` ; system: Aorta
Ans. 98

Qu. Report Rmax under test system Aorta for `CCOP(=O)(OCC)C(C)(C)/[N+]([O-])=C/c1ccccc1O` .
Ans. 99
